Assay: PF8380 concentration in serum and cerebrospinal fluid by mass spectrometry
Assay type: in vivo, mice
Conditions: mouse, cerebrospinal fluid, ip, 30 mg/KG/BW; single i.p. injection, 3 hours after injection
assayMetric: concentration at 3 h

Request: Recorded concentration at 3 h of `O=C(CCN1CCN(C(=O)OCc2cc(Cl)cc(Cl)c2)CC1)c1ccc2[nH]c(=O)oc2c1` , please.
Result: ≤ 420 nM
